Would you kindly list activity coefficient for each of these compounds?
experiment: activity coefficient (dimensionless); of the first substance listed, at infinite dilution; xn = mol fraction of the nth substance listed; conditions: 318.15 K; 101 kPa; Liquid; Chromatography; x1 = 0
Numbers only.

[
  {
    "compound": "C=CCCCCCCCC [1-decene] + O=S(=O)([N-]S(=O)(=O)C(F)(F)F)C(F)(F)F.OCCC[n+]1ccccc1",
    "readout": "activity coefficient",
    "endpoint_result": 128
  },
  {
    "compound": "C=CCCCC [hex-1-ene] + O=S(=O)([N-]S(=O)(=O)C(F)(F)F)C(F)(F)F.OCCC[n+]1ccccc1",
    "readout": "activity coefficient",
    "endpoint_result": 21.2
  },
  {
    "compound": "C1CCCC1 [cyclopentane] + O=S(=O)([N-]S(=O)(=O)C(F)(F)F)C(F)(F)F.OCCC[n+]1ccccc1",
    "readout": "activity coefficient",
    "endpoint_result": 14.6
  },
  {
    "compound": "CCCCC [pentane] + O=S(=O)([N-]S(=O)(=O)C(F)(F)F)C(F)(F)F.OCCC[n+]1ccccc1",
    "readout": "activity coefficient",
    "endpoint_result": 30.2
  },
  {
    "compound": "CCOCC [diethyl ether] + O=S(=O)([N-]S(=O)(=O)C(F)(F)F)C(F)(F)F.OCCC[n+]1ccccc1",
    "readout": "activity coefficient",
    "endpoint_result": 2.77
  },
  {
    "compound": "Cc1ccc(C)cc1 [1,4-dimethylbenzene] + O=S(=O)([N-]S(=O)(=O)C(F)(F)F)C(F)(F)F.OCCC[n+]1ccccc1",
    "readout": "activity coefficient",
    "endpoint_result": 3.58
  },
  {
    "compound": "CCc1ccccc1 [ethylbenzene] + O=S(=O)([N-]S(=O)(=O)C(F)(F)F)C(F)(F)F.OCCC[n+]1ccccc1",
    "readout": "activity coefficient",
    "endpoint_result": 3.96
  },
  {
    "compound": "CCCCCCCCC [nonane] + O=S(=O)([N-]S(=O)(=O)C(F)(F)F)C(F)(F)F.OCCC[n+]1ccccc1",
    "readout": "activity coefficient",
    "endpoint_result": 181
  }
]

Items follow; give activity coefficient for each.
1. C=CCCC [1-pentene] + O=S(=O)([N-]S(=O)(=O)C(F)(F)F)C(F)(F)F.OCCC[n+]1ccccc1
2. CCC(C)(C)OC [2-methoxy-2-methylbutane] + O=S(=O)([N-]S(=O)(=O)C(F)(F)F)C(F)(F)F.OCCC[n+]1ccccc1
3. CC(=O)O [acetic acid] + O=S(=O)([N-]S(=O)(=O)C(F)(F)F)C(F)(F)F.OCCC[n+]1ccccc1
4. C1CCCCC1 [cyclohexane] + O=S(=O)([N-]S(=O)(=O)C(F)(F)F)C(F)(F)F.OCCC[n+]1ccccc1
5. C=CCCCCC [1-heptene] + O=S(=O)([N-]S(=O)(=O)C(F)(F)F)C(F)(F)F.OCCC[n+]1ccccc1

1. 13.5
2. 4.45
3. 0.255
4. 23.2
5. 33.1

Items follow; give activity coefficient for each.
1. COC(C)(C)C [2-methoxy-2-methylpropane] + O=S(=O)([N-]S(=O)(=O)C(F)(F)F)C(F)(F)F.OCCC[n+]1ccccc1
2. CCCCCCCC [octane] + O=S(=O)([N-]S(=O)(=O)C(F)(F)F)C(F)(F)F.OCCC[n+]1ccccc1

1. 2.74
2. 116
